B1: HDV Ribozyme (parent)
chain: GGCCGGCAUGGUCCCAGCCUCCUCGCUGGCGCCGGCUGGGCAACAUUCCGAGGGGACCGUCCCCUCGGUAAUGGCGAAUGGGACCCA

# Variants of: B1
# assay_text: self-cleavage, relative activity (ratio to wild type); higher = more cleavage; co-transcriptional
# self-cleavage >= 0.3 gives Criterion met, anything below gives Criterion not met

alteration	group
G39U A56C	Criterion met
C49G G59U	Criterion met
U23C G40C	Criterion not met
G6U U46G	Criterion not met
G5U A70U	Criterion not met
A56C A78C	Criterion not met
C32A C62A	Criterion not met
U9A C58A	Criterion met
U27A G55U	Criterion met
G34U A43U	Criterion not met
G17C G80C	Criterion not met
C44A A51C	Criterion met
G50U A71C	Criterion met
C64U G81U	Criterion met
G5A C41G	Criterion not met
G2U G80A	Criterion not met
G6U G35A	Criterion not met
U37A U46C	Criterion not met
G17C U79G	Criterion not met
A51U G68U	Criterion met
G11U C57U	Criterion not met
G35A C61A	Criterion met
C13G C48A	Criterion not met
G53U G76C	Criterion met
G2A C75A	Criterion not met
C30G G76U	Criterion not met
G29U C49G	Criterion not met
U65G C84G	Criterion met
C64U C75U	Criterion not met
G40C C85U	Criterion not met
G50U G52A	Criterion met
C19U G39U	Criterion not met
C4A A45U	Criterion not met
C57A A78C	Criterion not met
U9C G28U	Criterion not met
U47G U69C	Criterion met
A83U C85A	Criterion not met
C15A U79C	Criterion met
C62U C86A	Criterion met
C24A C44U	Criterion not met
G28U U69C	Criterion not met
C58A G67A	Criterion met
G81C C85A	Criterion not met
C7A C66G	Criterion not met
C18U G31U	Criterion not met
A83G C85A	Criterion met
G73C A78C	Criterion not met
C41U C48A	Criterion met
G29U G82C	Criterion not met
C18G C44U	Criterion not met
G5C U47C	Criterion not met
C36G U60A	Criterion not met
G38C U79G	Criterion not met
G68A G81A	Criterion met
G34C G38A	Criterion not met
C19A C26A	Criterion met
A8C G40A	Criterion met
G28A G67U	Criterion not met
U46A C49G	Criterion met
U79G G81A	Criterion not met
U12C C15A	Criterion met
G1C C61U	Criterion not met
C19U G55C	Criterion not met
G2U C15G	Criterion not met
